TARGET_DESC: Neu5Ac(a2-3)Gal(b1-4)[Fuc(a1-3)]GlcNAc
EXPERIMENT: glycan array binding signal (z-score within array); higher = stronger binding
MEASUREMENT_CONDITIONS: glycan notation: IUPAC condensed, linker removed
This excerpt belongs to a sample that is enriched for the strongest signals.
QUANTITY_MEASURED: glycan array binding signal (z-score)
Give bare numbers.

See these solved cases before continuing.
{"BINDER": "RegIIIalpha (Mus musculus), O09037 (protein) MLPHLVLNSISWMLLSCLLFVFQVQGEDFQKEVPSPRTSCPMGYKAYRSHCYALVMTPKSWFQADLVCQKRPSGHLVSILSGGEASFVSSLVNGRVDNYQDIWIGLHDPTMGQQPNGGGWEWSNSDVLNYLNWDGDPSSTVNRGHCGSLTASSGFLKWGDYYCDGTLPFVCKFKQ", "READOUT_NUMBER": -0.054}
{"BINDER": "SUN4 (Saccharomyces cerevisiae), P53616 (protein) MGSSHHHHHHSSGLVPRGSHNGSIYGDLADFSGPYEKFEDGTIPCGQFPSGQGVIPISWLDEGGWSGVENTDTSTGGSCKEGSYCSYACQPGMSKTQWPSDQPSDGRSIGGLLCKDGYLYRSNTDTDYLCEWGVDAAYVVSELSNDVAICRTDYPGTENMVIPTYVQAGDSLPLTVVDQDTYYTWQGLKTSAQYYVNNAGISVEDACVWGSSSSGVGNWAPLNFGAGSSDGVAYLSLIPNPNNGNALNFNVKIVAADDSSTVNGECIYENGSFSGGSDGCTVSVTAGKAKFVLYN", "READOUT_NUMBER": -0.661}
{"BINDER": "MSMEG3662-2a (Mycobacterium smegmatis), A0QYH7_MYCS2 (protein) MGDTLTAGQKLERGGSLQSGNGAYTLTLQDDGNLVLYARDKAVWSTGTNGQDVVRAEVQTDGNFVLYTAEKPVWHTDTKGKKEVKLVLQDDRNLVLYAKDGPAWSSKTDTTEPPPPAPEPEKEAEVAPAAAEEAAPAPVAEPAPAEPAPAAPPPAPPAPRTYTVVSGDTLWAIAERFYGDGSKYQQIADASGIANPDLIHPGQVLTIP", "READOUT_NUMBER": -0.124}
{"BINDER": "AAA (Anguilla anguilla), Q7SIC1 (protein) VIPEGYTQENVAVRGKATQSAQLRGEHAANSEASNAIDGNRDSNFYHGSCTHSSGQANPWWRVDLLQVYTITSVTITNRGDCCGERISGAEINIGQHLASNGVNNPECSVIGSMATGETKTFHCPAPMIGRYVVTYLPTSESLHLCEVEVNVDKPAAA", "READOUT_NUMBER": -0.098}

Would you kindly look at the next entry?
Q) Given SP16663B-bot-321-25-321 (Bacteroides ovatus) (protein) DDDDEVTMNSKFYLSTKVFPVDSYEASLSVILKDNSVVVNELQPNYRFVACATERLSKDVKITADSDDNLVSAYNKANDTEYNILPAENYSFTNKTVTIENGESVSGDSIKIELLNVGSLTTEGGYLLPVTISSIEGNNLDALSSNRGVVYLKIQNIHVNVESGQPAEGTLIADRSGWTVKVAPTTRGDAKNLIDGTNSDVARDGGAEYWLTVDIGKVQTLTGIRNKCYASSYSPTAVEVFTSSDGAKWKSIGAVTISKSGTQYIKFSKAVETRYLKYYVKQGPNTVSLTEFDLYAK , state its recorded glycan array binding signal (z-score).
A) -0.258
